system: Botrytis cinerea; test: Botrytis cinerea infection of wounded apples, inorganic salts with or without NRRL Y-18314 (Example XI); assay type: in vivo; conditions: salt 2 grams/100 ml (FeSO4 5 millimolar), 10 days after inoculation, mean (standard error)
readout: Percent Infection, Salt Alone (No NRRL Y-18314)

[[record]]
compound = "[Cl-].[Na+] [NaCl]"
resultvalue = "100.0 (±0.0) %"

[[record]]
compound = "[Cl][Mn][Cl] [MnCl2]"
resultvalue = "100.0 (±0.0) %"

[[record]]
compound = "O=S(=O)([O-])[O-].[Fe+2] [FeSO4]"
resultvalue = "87.5 (±12.5) %"

[[record]]
compound = "[Cl-].[K+] [KCl]"
resultvalue = "100.0 (±0.0) %"

[[record]]
compound = "[Cl-].[Cl-].[Mg+2] [MgCl2]"
resultvalue = "100.0 (±0.0) %"

[[record]]
compound = "[Ca+2].[Cl-].[Cl-] [CaCl2, calcium chloride]"
resultvalue = "95.0 (±5.0) %"

